Kindly state log10 of Kd for each of the entries shown.
testTarget: human RORγt ligand binding domain (RORγt LBD) (Homo sapiens (Human), UniProt P51449)
Sequence (P51449 other isoform, or with tags, fused parts or gaps): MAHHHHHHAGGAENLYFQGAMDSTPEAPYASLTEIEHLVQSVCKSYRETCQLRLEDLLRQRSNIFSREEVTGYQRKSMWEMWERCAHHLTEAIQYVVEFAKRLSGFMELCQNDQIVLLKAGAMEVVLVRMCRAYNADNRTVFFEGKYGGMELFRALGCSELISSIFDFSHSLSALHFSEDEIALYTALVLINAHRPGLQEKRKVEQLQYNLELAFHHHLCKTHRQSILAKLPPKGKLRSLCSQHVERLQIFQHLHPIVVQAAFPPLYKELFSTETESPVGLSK
assaySummary: RORγt ThermoFluor® assay (thermal shift binding)
protocolConditions: read-out: ThermoFluor® Assay, Kd
Parameter value (number): base-10 log of Kd in nM.

# compound C[C@H]1CCCN1C(=O)c1nc(C(=O)NCC(C)(C)O)sc1-c1cnc(NC(C)(C)C)cc1C(F)F ; its log10 of Kd = 0.81

# log10 of Kd (compound: CC[C@H](Nc1cc(C(F)F)c(-c2sc(C(=O)N[C@H]3C[C@H]3O)nc2C(=O)N2CCC[C@@H]2C)cn1)C(F)(F)F (relative stereo) ) is 1.11

log10 of Kd measured on C[C@H]1CCCN1C(=O)c1nc(C(=O)NCC(C)(C)O)sc1-c1cnc(N[C@@H]2CCCCC2(F)F)cc1C(F)(F)F (relative stereo) = 0.59

log10 of Kd in this record for C[C@H]1CCCN1C(=O)c1nc(C(=O)NCC(C)(C)N)sc1-c1cnc(NC(C)(C)C)cc1C(F)(F)F : 1.34

// log10 of Kd lookup, compound = C[C@H](Nc1cc(C(F)F)c(-c2sc(C(=O)NCC(C)(C)O)nc2C(=O)N2CCC[C@@H]2C)cn1)C(C)(C)C , result: -0.04

Reported log10 of Kd for CC(Nc1cc(C(F)(F)F)c(-c2sc(C(=O)NCC(C)(C)O)nc2C(=O)N2CCCC[C@@H]2C)cn1)C(F)(F)F (stereo partly shown) was -0.37

Measured log10 of Kd of C[C@H]1CCCN1C(=O)c1nc(C(=O)NCc2n[nH]c(=O)o2)sc1-c1cnc(NC(C)(C)C)cc1C(F)(F)F : 0.69

Notebook: CC(C)(C)Nc1cc(C(F)F)c(-c2sc(C(=O)N[C@@H]3CC[C@@H](O)C3)nc2C(=O)N2C3CCC2CC3)cn1 , log10 of Kd read as -0.22

For record CC[C@H](Nc1cc(C(F)F)c(-c2sc(C(=O)N[C@H](C)C(C)(C)O)nc2C(=O)N2CCCC[C@@H]2C)cn1)C(F)(F)F the listed log10 of Kd is -0.23

Sure, the documented log10 of Kd for C[C@H]1CCCN1C(=O)c1nc(C(=O)N2CC[C@](C)(O)C2)sc1-c1cnc(NC(C)(C)C)cc1C(F)(F)F (relative stereo) is 0.91

log10 of Kd for CC[C@H](Nc1cc(C(F)F)c(-c2sc(C(=O)NC3CCOCC3)nc2C(=O)N2CC(F)(F)C[C@@H]2C)cn1)C(F)(F)F is -0.21

Reported log10 of Kd ( C[C@H]1CC(F)(F)CN1C(=O)c1nc(C(=O)N[C@H]2COC[C@@H]2O)sc1-c1cnc(NC2(C)CCC2)cc1C(F)(F)F ) = -0.74

Data point: O=C(N[C@@H]1COC[C@H]1O)c1nc(C(=O)N2C3CCC2CC3)c(-c2cnc(N[C@@H](C3CC3)C(F)(F)F)cc2C(F)F)s1 ; log10 of Kd = 0.20

The recorded log10 of Kd for entry CC[C@H](Nc1cc(C(F)(F)F)c(-c2sc(C(=O)N[C@H]3COC[C@@H]3O)nc2C(=O)N2C3CCC2CC3)cn1)C(F)(F)F equals 0.00

// C[C@H](Nc1cc(C(F)F)c(-c2sc(C(=O)N[C@@H]3CC[C@@H](O)C3)nc2C(=O)N2CCC[C@@H]2C)cn1)C(F)(F)F : log10 of Kd value = 0.58

Form: compound = CC[C@@H](Nc1cc(C(F)F)c(-c2sc(C(=O)NCC(C)(C)O)nc2C(=O)N2CCC[C@@H]2C)cn1)C1CC1 (relative stereo) ; log10 of Kd = 0.57

According to the records, this compound C[C@H](Nc1cc(C(F)F)c(-c2sc(C(=O)N[C@@H]3COC[C@H]3O)nc2C(=O)N2CCC[C@@H]2C)cn1)C(F)(F)F displays log10 of Kd of 1.08

log10 of Kd for C[C@H](Nc1cc(C(F)F)c(-c2sc(C(=O)N[C@H]3CC[C@@H]3O)nc2C(=O)N2C3CCC2CC3)cn1)C(F)(F)F (relative stereo) is 0.79

Consider C[C@H]1CC(F)(F)CN1C(=O)c1nc(C(=O)NC2CCS(=O)(=O)CC2)sc1-c1cnc(NC(C)(C)C)cc1C(F)F . Its measured log10 of Kd is -0.44

The compound C[C@H]1CCCCN1C(=O)c1nc(C(=O)NCC(C)(C)O)sc1-c1cnc(NC2CCCCC2)cc1C(F)(F)F showed log10 of Kd equal to -0.60

// log10 of Kd value for O=C(N[C@@H]1CC[C@H]1O)c1nc(C(=O)N2C3CCC2CC3)c(-c2cnc(N[C@@H](C3CC3)C(F)(F)F)cc2C(F)F)s1 (relative stereo) : 0.34

Record summary for C[C@@H](O)[C@@H](C)NC(=O)c1nc(C(=O)N2CCC[C@@H]2C)c(-c2cnc(NC(C)(C)C)cc2C(F)(F)F)s1 (relative stereo) : reported log10 of Kd = 0.36

// log10 of Kd lookup, compound = C[C@H](Nc1cc(C(F)F)c(-c2sc(C(=O)N[C@@H]3CCC[C@H]3O)nc2C(=O)N2CC(F)(F)C[C@@H]2C)cn1)C(F)(F)F , result: -0.14

// recorded log10 of Kd for C[C@H]1CCCN1C(=O)c1nc(C(=O)N[C@H]2CC[C@H](O)C2)sc1-c1cnc(NC(C)(C)C)cc1C(F)(F)F : -0.43

For C[C@H](Nc1cc(C(F)F)c(-c2sc(C(=O)NC3CCS(=O)(=O)CC3)nc2C(=O)N2CCC[C@@H]2C)cn1)C(F)(F)F the compound record lists log10 of Kd as 0.83

Every entry's value here was drawn from patent US10975068B2.
